Would you mind telling me the reported pKd of each entry?
- Tgt: T1, extracellular domain polypeptide of a recombinant B7-H3 variant 2 antigen (R&D Systems, Inc., #2318-B3-050/CF) (human, UniProt Q5ZPR3 29-466)
- T1 construct: Bought recombinant protein; also called recombinant B7-H3 antigen; B7-H3 antigen
- T1 sequence: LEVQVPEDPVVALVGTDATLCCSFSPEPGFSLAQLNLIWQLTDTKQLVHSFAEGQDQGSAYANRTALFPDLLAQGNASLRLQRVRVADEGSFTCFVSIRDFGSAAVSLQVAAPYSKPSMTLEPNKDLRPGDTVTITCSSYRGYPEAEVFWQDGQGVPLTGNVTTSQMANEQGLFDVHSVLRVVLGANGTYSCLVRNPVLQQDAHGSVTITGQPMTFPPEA
- Method description: SPR (Biacore), antibody captured on anti-human IgG, B7-H3 variant 2 extracellular domain as analyte
Give bare numbers, as −log10 of the molar value.

Binder	pKd
humanized M30 antibody M30-H4-L2 (antibody, human IgG1, kappa, V domains shown, Human IgG1/kappa) VH: EVQLVQSGAEVKKPGSSVKVSCKASGYTFTNYVMHWVKQAPGQGLEWIGYINPYNDDVKYNEKFKGKATQTSDKSTSTAYMELSSLRSEDTAVYYCARWGYYGSPLYYFDYWGQGTLVTVSS VL: EIVLTQSPATLSLSPGERATLSCRASSRLIYMHWYQQKPGQAPRLWIYATSNLASGIPARFSGSGSGTDYTLTISRLEPEDFAVYYCQQWNSNPPTFGQGTKVEIKR	6.85
humanized M30 antibody M30-H1-L2 (antibody, human IgG1, kappa, V domains shown, Human IgG1/kappa) VH: QVQLVQSGAEVKKPGSSVKVSCKASGYTFTNYVMHWVRQAPGQGLEWMGYINPYNDDVKYNEKFKGRVTITADESTSTAYMELSSLRSEDTAVYYCARWGYYGSPLYYFDYWGQGTLVTVSS VL: EIVLTQSPATLSLSPGERATLSCRASSRLIYMHWYQQKPGQAPRLWIYATSNLASGIPARFSGSGSGTDYTLTISRLEPEDFAVYYCQQWNSNPPTFGQGTKVEIKR	7.00

Attention now shifts to the item below.
Exercise: If you can, please state the reported pKd value of humanized M30 antibody M30-H1-L4 (antibody, human IgG1, kappa, V domains shown, Human IgG1/kappa; also called M30-H1-L4 antibody) VH: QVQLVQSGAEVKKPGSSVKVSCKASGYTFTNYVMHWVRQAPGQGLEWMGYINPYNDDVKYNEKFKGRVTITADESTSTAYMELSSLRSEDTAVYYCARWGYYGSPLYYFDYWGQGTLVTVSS VL: EIVLTQSPATLSLSPGERATLSCRASSRLIYMHWYQQKPGQAPRPLIYATSNLASGIPARFSGSGSGTDFTLTISSLEPEDFAVYYCQQWNSNPPTFGQGTKVEIKR .
Solution: 7.80
